Assay Protocol: BET inhibitor-based combinations targeting novel dependencies in MECOM-rearranged (r) AML: UCSD-AML1 cell line (AID 2202235); further: nearly all actives have a fitted effect of over 40% in size
Conditions: UCSD-AML1 AML cells viability, CellTiter-Glo, 48 h; series mostly up to 46 µM
Inconclusive results are not listed. Activity calls are given as the source filed them. The call rests on the fitted dose curve; in most records, active means well fitted inhibition curve with a large enough effect; inconclusive means small, poorly fitted or top-dose-only effect; inactive means no such curve, though single readings can be large or run the other way.
Return exactly one item of active, inactive

Some entries whose results are on file:
CCN(CC)CCn1c(=O)c(Cc2ccc(OC)cc2)nc2ccccc21    inactive
CC(C)N(CCC(=O)c1ccc2ccccc2c1)Cc1ccccc1    active
CN1C2CCC1CC(OC(=O)C(CO)c1ccccc1)C2 (stereo not given)    inactive
COc1cc([C@@H]2c3cc4c(cc3[C@H](O)[C@H]3COC(=O)[C@H]23)OCO4)cc(OC)c1OC    active

Next compound, please.
Incoming: What did the test return for CN(C)c1nc(N(C)C)nc(N(C)C)n1 ?
Outgoing: inactive

---

Assay Protocol: BET inhibitor-based combinations targeting novel dependencies in MECOM-rearranged (r) AML: UCSD-AML1 cell line (AID 2202235); further: nearly all actives have a fitted effect of over 40% in size
Conditions: UCSD-AML1 AML cells viability, CellTiter-Glo, 48 h; series mostly up to 46 µM
Results filed as inconclusive are left out. Active and inactive are the calls of the source. Calls come from the whole dose curve; as a rule, active = well fitted inhibition curve with a large enough effect; inconclusive = small, poorly fitted or top-dose-only effect; inactive = no such curve, though single readings can be large or run the other way.
Return exactly one item of active, inactive

Some entries whose results are on file:
Cc1ccc(Nc2nccc(N(C)c3ccc4c(C)n(C)nc4c3)n2)cc1S(N)(=O)=O    active
C=CC(=O)Nc1cccc(Nc2nc(Nc3ccc(Oc4ccnc(C(=O)NC)c4)cc3)ncc2F)c1    active
Cc1ccc(C(=O)Nc2ccc(CN3CCN(C)CC3)c(C(F)(F)F)c2)cc1C#Cc1cnc2cccnn12    active
O=C1c2cccc(O)c2C(=O)c2c(O)cc(CO)cc21    inactive
NC(=O)OCC(COC(N)=O)c1ccccc1    inactive

Incoming: What did the test return for COC(=O)Nc1nc2ccc(C(=O)c3ccc(F)cc3)cc2[nH]1 ?
Outgoing: active

Incoming: What did the test return for COc1ccc(C2CC(c3ccccc3)=NN2c2ccc(S(N)(=O)=O)cc2)cc1 (stereo not drawn) ?
Outgoing: inactive

Incoming: What did the test return for O=P(O)(O)C(O)(Cc1cccnc1)P(=O)(O)O ?
Outgoing: inactive

---

Assay Protocol: BET inhibitor-based combinations targeting novel dependencies in MECOM-rearranged (r) AML: MV-4-11 cell line (AID 2202233); further: nearly all actives have a fitted effect of over 45% in size
Conditions: MV-4-11 AML viability, CellTiter-Glo luminescence, 48 h; series mostly up to 46 µM
Records with an inconclusive call do not appear. Active and inactive are the calls of the source. Calls follow the shape of the dose curve; as a rule, active = well fitted inhibition curve with a large enough effect; inconclusive = small, poorly fitted or top-dose-only effect; inactive = no such curve, though single readings can be large or run the other way.
Return exactly one item of class 1 for active, class 0 for inactive

Cc1c(C)c2c(c(C)c1O)CCC(C)(COc1ccc(CC3SC(=O)NC3=O)cc1)O2 (stereo not given)    class 0

Next compound, please.
Incoming: What did the test return for O=C(Nc1ccc(OC(F)(F)F)cc1)c1sccc1NCc1ccnc2ccccc12 ?
Outgoing: class 1

---

Assay Protocol: BET inhibitor-based combinations targeting novel dependencies in MECOM-rearranged (r) AML: HNT-34 cell line (AID 2202234); further: nearly all actives have a fitted effect of over 35% in size; further: potency means the concentration at half of the fitted maximal effect
Conditions: HNT-34 AML viability, CellTiter-Glo luminescence, 48 h; series mostly up to 46 µM
Inconclusive results are not listed. The source made the active and inactive calls. The call rests on the fitted dose curve; in most records, active means well fitted inhibition curve with a large enough effect; inconclusive means small, poorly fitted or top-dose-only effect; inactive means no such curve, though single readings can be large or run the other way.
Parameter Measured: Potency

Observe how each entry below is paired with its result.
CN(C[C@@H]1COCCO1)S(=O)(=O)Nc1ccc2ccc3ncc(-c4cnn(C)c4)cc3c(=O)c2c1    3.32 µM (active)
O=C(Nc1ccc(OC(F)(F)F)cc1)c1sccc1NCc1ccnc2ccccc12    10.5 µM (active)
CC[C@H](NC(=O)[C@H](CS(=O)(=O)CC1CC1)N[C@@H](c1ccc(F)cc1)C(F)(F)F)C(=O)C(=O)NC1CC1    inactive
CCOC(=O)Nc1ccc(NCc2ccc(F)cc2)nc1N    inactive
CNC(=O)c1nn(C)c2c1C(C)(C)Cc1cnc(Nc3ccc(N4CCN(C)CC4)cc3)nc1-2    0.263 µM (active)
Cc1c(OCC(F)(F)F)ccnc1CS(=O)c1nc2ccccc2[nH]1 (stereo not drawn)    inactive

Kindly note the recorded Potency for O=C1NC(=O)C(c2cnc3ccccn23)=C1c1cn2c3c(cccc13)CN(C(=O)N1CCOCC1)CC2 , which is 0.118 µM (active)

Kindly note the recorded Potency for CCOC(=O)c1ncn2c1CN(C)C(=O)c1cc(F)ccc1-2 , which is inactive

Kindly note the recorded Potency for COc1cccc(OCCCN)c1-c1cc(Nc2cnc(C#N)cn2)n[nH]1 , which is 0.059 µM (active)

Kindly note the recorded Potency for CC(=O)c1c(C)c2cnc(Nc3ccc(N4CCNCC4)cn3)nc2n(C2CCCC2)c1=O , which is 16.6 µM (active)

Kindly note the recorded Potency for Clc1ccc(C(Cn2ccnc2)OCc2c(Cl)cccc2Cl)c(Cl)c1 (stereo not drawn) , which is 26.3 µM (active)

Kindly note the recorded Potency for O=C(O)CCC1CCC(c2cc(F)ccc2F)(S(=O)(=O)c2ccc(Cl)cc2)CC1 (stereo not drawn) , which is inactive

---

Study System: Cellular tumor antigen p53 (Homo sapiens)
Assay Protocol: Primary qHTS for small molecule compounds that upregulate eGFP-tagged delta133p53alpha (in C-terminal) cells. (AID 2060324); further: potency means the concentration at half of the fitted maximal effect
Conditions: NCI-H358 delta133p53alpha-eGFP (C-terminal tag), GFP fluorescence imaging, 24 h; series mostly up to 57.5 µM
Records with an inconclusive call do not appear. Active and inactive are the calls of the source. The call rests on the fitted dose curve; in most records, active means well fitted activation curve with a large enough effect; inconclusive means small, poorly fitted or top-dose-only effect; inactive means flat fitted curve, though single readings scatter.
Parameter Measured: Potency

O=C(O)COCCN1CCN(C(c2ccccc2)c2ccc(Cl)cc2)CC1 (stereo unspecified)    inactive
O=C(N[C@@H](Cc1ccccc1)C(=O)CCl)OCc1ccccc1    12 µM (active)
CC(N)(C(=O)O)c1ccc(C(=O)O)cc1 (stereo unspecified)    inactive
COc1cc(C(O)CO)ccc1O (stereo unspecified)    inactive
CN(C)CCC=C1c2ccccc2CCc2ccccc21    inactive

Please look at the following compound next.
Kindly note the recorded Potency for O=C(CCCCCN1CCN(c2ccccc2-c2ccccc2)CC1)NC1CCCc2ccccc21 (stereo unspecified) , which is inactive

---

Study System: Cellular tumor antigen p53 (Homo sapiens) (UniProt P04637)
Sequence (P04637 whole entry, looked up): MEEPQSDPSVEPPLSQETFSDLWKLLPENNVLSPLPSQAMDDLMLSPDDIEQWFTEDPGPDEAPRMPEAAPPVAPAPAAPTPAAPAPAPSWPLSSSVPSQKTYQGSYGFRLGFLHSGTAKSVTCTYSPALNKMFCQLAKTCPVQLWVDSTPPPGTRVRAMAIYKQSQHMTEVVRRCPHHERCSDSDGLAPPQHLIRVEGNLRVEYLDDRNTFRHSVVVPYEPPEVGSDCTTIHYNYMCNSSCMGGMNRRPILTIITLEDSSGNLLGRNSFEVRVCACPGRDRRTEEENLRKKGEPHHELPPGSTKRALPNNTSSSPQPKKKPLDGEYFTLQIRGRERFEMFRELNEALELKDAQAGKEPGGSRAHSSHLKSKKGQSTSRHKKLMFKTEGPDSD
Assay Protocol: Primary qHTS for small molecule compounds that upregulate eGFP-tagged delta133p53alpha (in N-terminal) cells. (AID 2060322); further: nearly all actives have a fitted effect of over 75% in size;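 on activation: cells pre-induced with doxycycline then dosed without doxycycline; 0% = DMSO vehicle and 100% = reference activator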
Conditions: NCI-H358 eGFP-delta133p53alpha fluorescence, 24 h; stronger effect = higher value
Description: Assay Development and Screening Technology National Center for Advancing Translational Sciences (NCATS), National Institute of Health (NIH), Rockville, Maryland Cellular senescence (CS) is one of the hallmarks of aging and age-related diseases. […] Here we report the development and validation of a cell-based quantitative high throughput screening (qHTS) assay in 1,536-well format. […]
Records with an inconclusive call do not appear.
Parameter Measured: activation (%)
Give the number; % is assumed, so skip it.

Observe how each entry below is paired with its result.
COc1cccc(OC)c1-c1nc(C(=O)N[C@@H](CC(C)C)C(=O)O)cn1-c1ccnc2cc(Cl)ccc12    -8.59
COc1cc(/C=C/C(=O)OC2CC3CCC2(C)C3(C)C)ccc1O (centres undefined)    -14.5
Cc1ccc(-n2nc(C(C)(C)C)cc2NC(=O)Nc2ccc(OCCN3CCOCC3)c3ccccc23)cc1    23.4

Please look at the following compound next.
Kindly note the recorded activation for COc1ccc2c(c1)CCC1C2CC[C@@]2(C)C1CC[C@@H]2NCCCCCCN1C(=O)CCC1=O (some centres undefined) , which is 10.7

---

Potency: recorded values
Study System: Cellular tumor antigen p53 (Homo sapiens)
Assay Protocol: Primary qHTS for small molecule compounds that upregulate eGFP-tagged delta133p53alpha (in N-terminal) cells. (AID 2060322); further: nearly all actives have a fitted effect of over 75% in size; further: potency means the concentration at half of the fitted maximal effect;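 on activation: cells pre-induced with doxycycline then dosed without doxycycline; 0% = DMSO vehicle and 100% = reference activator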
Conditions: NCI-H358 eGFP-delta133p53alpha fluorescence, 24 h
Results filed as inconclusive are left out. Activity calls are given as the source filed them. Calls follow the shape of the dose curve; as a rule, active = well fitted activation curve with a large enough effect; inconclusive = small, poorly fitted or top-dose-only effect; inactive = no such curve, though single readings can be large or run the other way.

Observe how each entry below is paired with its result.
CC(C)C[C@H](NC(=O)CNC(=O)c1cc(Cl)ccc1Cl)B1OC(=O)CC(CC(=O)O)(C(=O)O)O1 (some centres not stated)    9.68 µM (active)
CC[C@H](CO)Nc1nc(NCc2ccc(-c3ccccn3)cc2)c2ncn(C(C)C)c2n1    0.536 µM (active)

Query N#Cc1ccnc(Nc2cc(C3CCN(C4COC4)CC3)cc(N3CCC(F)(F)C3)n2)c1 on Cellular tumor antigen p53 (Homo sapiens); Potency returned: 27.2 µM (active)

Query CCOC(=O)c1cnn(-c2ccc(NC(=O)C(Cl)=C(Cl)Cl)cc2)c1C(F)(F)F on Cellular tumor antigen p53 (Homo sapiens); Potency returned: 19 µM (active)

Query COc1ncc2cc(C(=O)Nc3cc(C(=O)NCc4cccc(Cl)c4)ccc3Cl)c(=O)[nH]c2n1 on Cellular tumor antigen p53 (Homo sapiens); Potency returned: 2.69 µM (active)

Query C=C1C(=O)O[C@@H]2[C@H]3C(C)=CC(=O)C3=C(C)CC[C@@H]12 on Cellular tumor antigen p53 (Homo sapiens); Potency returned: 10.7 µM (active)

Query CCC(C)CC(=O)OC1C(=O)C(CO)=CC(O)C1C(C)C (configuration not stated) on Cellular tumor antigen p53 (Homo sapiens); Potency returned: 23.9 µM (active)

Query C=C1CC[C@@H]2[C@](C)(CO)[C@H](O)CC[C@@]2(C)[C@@H]1C/C=C1/C(=O)OCC1O (some centres not stated) on Cellular tumor antigen p53 (Homo sapiens); Potency returned: 23.9 µM (active)

Query NC1CCC(Nc2cc(-c3cccc(NCc4cccc(F)c4)n3)c(Cl)cn2)CC1 (configuration not stated) on Cellular tumor antigen p53 (Homo sapiens); Potency returned: 1.51 µM (active)

Query CCNC(=O)C#Cc1ccc2c(C(=Nc3ccc(CN(C)C)cc3)c3ccccc3)c(O)[nH]c2c1 on Cellular tumor antigen p53 (Homo sapiens); Potency returned: 13.1 µM (active)

Query Cn1cc(C2=C(c3c4n(c5ccccc35)CCC(CN)C4)C(=O)NC2=O)c2ccccc21 (configuration not stated) on Cellular tumor antigen p53 (Homo sapiens); Potency returned: 27.3 µM (active)

Query Nc1c(C(=O)Nc2ccc(F)cc2)sc2nc(-c3cccs3)cc(C(F)(F)F)c12 on Cellular tumor antigen p53 (Homo sapiens); Potency returned: 1.53 µM (active)

Query Cc1sc2c(c1C)C(c1ccc(Cl)cc1)=N[C@H](CC(=O)NCCCCNC(=O)COc1cccc3c1C(=O)N([C@H]1CCC(=O)NC1=O)C3=O)c1nnc(C)n1-2 on Cellular tumor antigen p53 (Homo sapiens); Potency returned: 1.69 µM (active)

Query C[C@@H]1C[C@H]2O[C@@H]2/C=C\C=C\C(=O)Cc2c(Cl)c(O)cc(O)c2C(=O)O1 on Cellular tumor antigen p53 (Homo sapiens); Potency returned: 4.53 µM (active)

Query COc1ccccc1-c1c[nH]c2ncc(-c3cncc(C(=O)N(C)C)c3)cc12 on Cellular tumor antigen p53 (Homo sapiens); Potency returned: 21.3 µM (active)

Query COc1ccc(F)cc1-c1cc(NC(=O)[C@@H]2CCCNC2)ncc1Cl on Cellular tumor antigen p53 (Homo sapiens); Potency returned: 0.269 µM (active)

Query NC(=O)c1cnc(N[C@@H]2CCCC[C@@H]2N)nc1Nc1cccc(-n2nccn2)c1 on Cellular tumor antigen p53 (Homo sapiens); Potency returned: 34.3 µM (active)

Query COc1ccc(CC2C(=O)NC(C)C(=O)N(C)C3Cc4ccc(cc4)Oc4cc(ccc4OC4OC(CO)C(O)C(O)C4O)CC(C(=O)NC(C)C(=O)NC(C)C(=O)N2C)N(C)C3=O)cc1 (configuration not stated) on Cellular tumor antigen p53 (Homo sapiens); Potency returned: 5.09 µM (active)

Query Cn1cc(C2=C(c3ccc(Cl)cc3Cl)C(=O)NC2=O)c2ccccc21 on Cellular tumor antigen p53 (Homo sapiens); Potency returned: 10.7 µM (active)
